- System: gastric-acid-secretion
- TEST PROTOCOL: Gastric-acid-secretion inhibition on rats (method of Shay et al.)
- Type: in vivo
- APPLIED CONDITIONS: Rattus norvegicus, po; rats, p.o., 4 hours after ligature; read-out: Acid-secretion inhibition, ED50
OBSERVED PROPERTY: ED50 (mg/kg)
Give the value, in units of mg/kg, as a plain number.

CCCC1CCCCC(=C\c2ccc(Cl)cc2)/C1=N/OCCN(CC)CC (racemic) ... 52.9

// switching to the query molecule
Ask: Which ED50 value is on record for CCCCCC1CCCC(=C\c2ccc(F)cc2)/C1=N/OCCN1CCN(Cc2ccccc2)CC1 (racemic) ?
Reply: 200

====

- TEST PROTOCOL: Acute toxicity on mice (method of Lichtfield and Wilcoxon), LD50
- APPLIED CONDITIONS: mouse, in vivo, ip, 14 days observation
OBSERVED PROPERTY: LD50 at 336 h

Sample records with LD50 at 336 h:
CCCCCCC1CCCC(=C\c2ccccc2OC)/C1=N/OCCN(CC)CC (racemic) ... 88 mg/kg
CCCCCC1CCCC(=C\c2ccc(F)cc2)/C1=N/OCCN1CCN(Cc2ccccc2)CC1 (racemic) ... > 300 mg/kg
CCN(CC)CCO/N=C1/C(=C/c2ccc(Cl)c(Cl)c2)CCCC1C (racemic) ... 100 to 300 mg/kg
CCCC1CCCCC(=C\c2ccc(Cl)cc2)/C1=N/OCC(O)CN1CCCC1 (racemic) ... 100 to 300 mg/kg
CCCCCCCC1CCCC(=C\c2ccc(F)cc2)/C1=N/OCCN(C)C (racemic) ... 100 to 300 mg/kg

Ask: Which LD50 at 336 h value is on record for CC(CO/N=C1/C(=C/c2ccc(F)cc2)CCCC1C)CN(C)C (racemic) ?
Reply: ~300 mg/kg

Ask: Which LD50 at 336 h value is on record for CCCC1CCCCC(=C\c2ccc(Cl)cc2)/C1=N/OCCN(CC)CC (racemic) ?
Reply: 100 to 300 mg/kg

Each recorded value in this set is attributed to patent US5523303A.
